Where do the numbers come from? From PubChem BioAssay (NCI).

Test system: HL-60(TB) leukemia
Assay Info: NCI tumour cell line growth inhibition, 48 h; in the data active = GI50 below about 0.43 µM; inactive = the rest
Where a SMILES comes first, the peptide text is derived from it. [ ]: non-standard residue; d: D form. The star is where a group is joined. ξ: configuration not given here. NMeF = CN[C@@H](Cc1ccccc1)C(=O)O; NMeN = CN[C@@H](CC(N)=O)C(=O)O; NMeV = CN[C@H](C(=O)O)C(C)C; ξNMeV = CNC(C(=O)O)C(C)C; Boc = CC(C)(C)OC(=O)*; ξNMeA = CNC(C)C(=O)O; ξV = CC(C)C(N)C(=O)O
Hello, when you answer, please use one of the following outcomes: true for active, false for inactive

State the result this test recorded for `Clc1ccc(-c2nc(-c3ccccc3)cn3ccnc23)cc1` . false

State the result this test recorded for COC(=O)C(C)N(C)C(=O)[C@H](CC(N)=O)N(C)C(=O)[C@@H]1CCCN1C(=O)[C@H](C(C)C)N(C)C(=O)C(C(C)C)N(C)C(=O)[C@H](Cc1ccccc1)N(C)C(=O)C(NC(=O)OC(C)(C)C)C(C)C (some centres undefined) (Boc-[ξV][NMeF][ξNMeV][NMeV]P[NMeN][ξNMeA]-OMe) . false

State the result this test recorded for `c1ccc(-c2nc([P+](c3ccccc3)(c3ccccc3)c3ccccc3)c(N3CCOCC3)o2)cc1` . true

State the result this test recorded for `O=C(C1CC1)N1CC[C@@H](Cc2n[nH]c(=O)n2-c2ccc(-c3ccc4occc4c3)cc2)C1` . true

###

Tested on: U251 CNS
Assay Info: NCI tumour cell line growth inhibition, 48 h
Measured Parameter: TGI

// map CC/C=C/c1cc2c(c3[nH]ccc13)[C@@H](C)CC2C (stereo partly specified) (tested in a mixture with another compound) to recorded TGI (system: U251 CNS) 31.9 µM

// map Cc1cc(-c2ccc(C3C(C#N)=C(N)Oc4c3c(=O)oc3ccccc43)cc2)cnc1F (stereo unspecified) to recorded TGI (system: U251 CNS) > 100 µM

// map `CC(=O)OC(OC(C)=O)c1ncccc1C(=O)OC(C)C` to recorded TGI (system: U251 CNS) > 100 µM

// map CC(=O)c1cccc(NC(=O)C(=O)C(C(=O)NN)c2ccccc2)c1 (stereo unspecified) to recorded TGI (system: U251 CNS) > 100 µM

// map `Cc1nc(Nc2ccc(Cl)cc2)sc1C(=O)NNC(=O)C(=O)NN` to recorded TGI (system: U251 CNS) 33.2 µM

// map `Nc1ccc(C(=O)N/C(=C\c2cccc([N+](=O)[O-])c2)c2nc3ccccc3[nH]2)cc1` to recorded TGI (system: U251 CNS) > 100 µM

// map CC1(C)OC(CCC#N)CN1C(=O)OCc1ccccc1 (stereo unspecified) to recorded TGI (system: U251 CNS) > 100 µM

// map `NC(=O)c1cc(Cl)ccc1NC(=O)COc1ccccc1` to recorded TGI (system: U251 CNS) > 100 µM

// map `Nc1nnnn1NC(=O)NCCCl` to recorded TGI (system: U251 CNS) > 10 µM

// map COc1ccc2nc3n(c2c1)C(c1c(F)cccc1Cl)SC3 (stereo unspecified) to recorded TGI (system: U251 CNS) > 100 µM

// map `CNc1nc(N)cc(=O)[nH]1` to recorded TGI (system: U251 CNS) > 100 µM
